Cited source for all entries: patent US20020137929A1

tested on: AMBEL (Ragweed, Common); assay: Postemergence herbicidal evaluation; format: in vivo, Ambrosia artemisifolia; conditions: postemergence, rate 0.0156 kg/ha
valueType: herbicidal rating AMBEL
One number for each entry.

Completed entries (count: 5):
Cn1c(C(F)(F)F)cc(=O)n(-c2cc(N=C3SCC(=O)N3Cc3ccccc3Cl)c(Cl)cc2F)c1=O	9.0
CCOC(=O)CN1C(=O)C(SC)SC1=Nc1cc(-n2c(=O)cc(C(F)(F)F)n(C)c2=O)c(F)cc1Cl (stereo not drawn)	3.0
Cn1c(C(F)(F)F)cc(=O)n(-c2cc(N=C3SCC(=O)N3Cc3ccc(Cl)cc3)c(Cl)cc2F)c1=O	9.0
CCOC(=O)CN1C(=O)C(C(=O)OCC)SC1=Nc1cc(-n2c(=O)cc(C(F)(F)F)n(C)c2=O)c(F)cc1Cl (stereo not drawn)	9.0
Cn1c(C(F)(F)F)cc(=O)n(-c2cc(N=C3SCC(=O)N3Cc3cccc(C(F)(F)F)c3)c(Cl)cc2F)c1=O	9.0

# context switch: different molecule, same herbicidal rating AMBEL
Form: molecule = `Cn1c(C(F)(F)F)cc(=O)n(-c2cc(N=C3SCC(=O)N3Cc3ccc(Br)cc3)c(Cl)cc2F)c1=O` ; herbicidal rating AMBEL = 9.0

* * *

tested on: SETVI (Foxtail, Green); assay: Preemergence herbicidal evaluation; type: in vivo, Setaria viridis; conditions: rate 0.0625 kg/ha; rated 4-5 weeks after treatment; rating scale 0-9
valueType: Preemergence herbicidal rating SETVI
Give bare numbers.

# example entries with known answers
COc1cccc(CN2C(=O)CSC2=Nc2cc(-n3c(=O)cc(C(F)(F)F)n(C)c3=O)c(F)cc2Cl)c1	0.0
Cn1c(C(F)(F)F)cc(=O)n(-c2cc(N=C3SCC(=O)N3Cc3ccc(Cl)cc3)c(Cl)cc2F)c1=O	7.0

Give me Preemergence herbicidal rating SETVI for each of these molecules, listed below.
1. Cn1c(C(F)(F)F)cc(=O)n(-c2cc(N=C3SCC(=O)N3C3CC3)c(Cl)cc2F)c1=O
2. Cn1c(C(F)(F)F)cc(=O)n(-c2cc(N=C3SCC(=O)N3Cc3ccc(S(N)(=O)=O)cc3)c(Cl)cc2F)c1=O
3. COCCN1C(=O)CSC1=Nc1cc(-n2c(=O)cc(C(F)(F)F)n(C)c2=O)c(F)cc1Cl

1. 1.0
2. 2.0
3. 0.0

* * *

system: IPOHE (Morningglory, Ivyleaf); assay: Preemergence herbicidal evaluation; type: in vivo, Ipomoea hederacea; conditions: rate 0.2500 kg/ha; rated 4-5 weeks after treatment
valueType: Preemergence herbicidal rating IPOHE
Answers are plain numbers.

Some solved cases for reference:
CCOC(=O)CN1C(=O)C(Cc2ccccc2OC(C)C(=O)OC)SC1=Nc1cc(-n2c(=O)cc(C(F)(F)F)n(C)c2=O)c(F)cc1Cl (stereo not shown)	0.0
Cn1c(C(F)(F)F)cc(=O)n(-c2cc(N=C3SCC(=O)N3[C@H](Cc3ccccc3)C(=O)O)c(Cl)cc2F)c1=O	4.0
C=CCN1C(=O)CSC1=Nc1cc(-n2c(=O)cc(C(F)(F)F)n(C)c2=O)c(F)cc1Cl	9.0

API: the following record is the query input.
Per the record, `COC(=O)[C@H](Cc1ccc([N+](=O)[O-])cc1)N1C(=O)CSC1=Nc1cc(-n2c(=O)cc(C(F)(F)F)n(C)c2=O)c(F)cc1Cl` has Preemergence herbicidal rating IPOHE of 3.0
